Assay: Cmax in mouse at 30 mg/kg, po
Assay type: ADME, organism-based
Design: dose 30 mg/kg, route oral
Settings: in vivo
If the reported Cmax equals or exceeds 6000 nM, assign Satisfied. If not, assign Not satisfied.

Query block: Hello, I need to know if `CCc1ccc(NS(=O)(=O)c2ccc(F)cc2/C=C\CN(CC)CC)c(C(=O)O)c1OC` has measured Cmax not below 6000 nM. Thanks!
Result block: Not satisfied

Query block: Does Cmax meet or surpass 6000 nM for CCc1ccc(NS(=O)(=O)c2ccccc2NCCC2CCCN2C)c(C(=O)O)c1OC (stereo not given) ?
Result block: Not satisfied

Query block: Check this compound for Cmax at or above 6000 nM: `CCc1ccc(NS(=O)(=O)c2ccc(F)cc2)c(C(=O)O)c1OCCN`
Result block: Not satisfied

Query block: Reported Cmax at or above 6000 nM? `CCc1ccc(NS(=O)(=O)c2ccccn2)c(C(=O)O)c1C`
Result block: Satisfied

---

Assay: Half life in mouse at 10 mg/kg, iv
Type: ADME, organism-based
Design: dose 10 mg/kg, route intravenous
Conditions: in vivo
propertyName: half-life (min)
All answers are understood in min, so give the number only.

Query block: Endpoint output: half-life of `CCc1ccc(NS(=O)(=O)c2ccc(F)cc2/C=C\CN(CC)CC)c(C(=O)O)c1OC` . Value?
Result block: 12

Query block: Recorded half-life for `CCc1ccc(NS(=O)(=O)c2ccc(F)cc2)c(C(=O)O)c1OCCN` , please?
Result block: 18

Query block: Recorded half-life for `CCc1ccc(NS(=O)(=O)c2ccccc2NCCCCN(C)C)c(C(=O)O)c1OC` , please?
Result block: 18

Query block: // query half-life value for entry `CCc1ccc(NS(=O)(=O)c2ccccn2)c(C(=O)O)c1C`
Result block: 144

Query block: Entry CCc1ccc(NS(=O)(=O)c2ccccc2NCCC2CCCN2C)c(C(=O)O)c1OC (stereo not given) has what half-life?
Result block: 18

---

I'd appreciate it if you could supply Vd values for the items below.
Assay: Volume of distribution in mouse at 10 mg/kg, iv
Type: ADME, organism-based
Design: dose 10 mg/kg, route intravenous
Conditions: in vivo, read-out: Vdss
Please reply with the bare figure in L/kg and do not write the unit itself.

Query block: Which Vd value is on record for `CCc1ccc(NS(=O)(=O)c2ccc(F)cc2/C=C\CN(CC)CC)c(C(=O)O)c1OC` ?
Result block: 13.8

Query block: Using the record for `CCc1ccc(NS(=O)(=O)c2ccccn2)c(C(=O)O)c1C` , report its Vd.
Result block: 5.5

Query block: May I ask what Vd has been recorded for `CCc1ccc(NS(=O)(=O)c2ccccc2NCCCCN(C)C)c(C(=O)O)c1OC` ?
Result block: 0.8
